# Tested on: barnyardgrass (Echinochloa crus-galli)
# Run Description: Test C greenhouse herbicide test, pre- and postemergence
# Format: in vivo
# Condition Notes: Postemergence, 62 g ai/ha; 0 to 100 scale (0 no effect, 100 complete control)
Reported Endpoint: Barnyardgrass plant response rating

- Molecule: "CC(=O)Oc1c(C)nn(C)c(=O)c1-c1c(C)cc(C)c2ccccc12 [Compound 153]"
  Test Value: 60
- Molecule: "COC(=O)Oc1cnn(C)c(=O)c1-c1c(C)ccc2ccccc12 [Compound 143]"
  Test Value: 25
- Molecule: "Cc1ccc2ccccc2c1-c1c(OC(=O)N2CCOCC2)c(Br)nn(C)c1=O [Compound 176]"
  Test Value: 5
- Molecule: "Cc1cc(C)c2ccccc2c1-c1c(OS(C)(=O)=O)c(C)nn(C)c1=O [Compound 154]"
  Test Value: 85
